# Test system: Methicillin-Susceptible Staphylococcus aureus Isolates
# ASSAY_OVERVIEW: MIC assay (NCCLS broth dilution), MSSA clinical isolates
# Type: cell-based
# STUDY_CONDITIONS: Staphylococcus aureus, MSSA isolate 781, 03MAR06; read-out: Minimal Inhibitory Concentration
METRIC_NAME: MIC (µg/mL)
One number for each entry, in µg/mL.

In the examples that follow, each entry is paired with its recorded MIC.
chemical_smiles=CC(=O)NC[C@H]1CN(c2ccc(N3CCOCC3)c(F)c2)C(=O)O1 unit_label=µg/mL obs_value=2
chemical_smiles=CN(C)[C@@H]1C(O)=C(C(N)=O)C(=O)[C@@]2(O)C(O)=C3C(=O)c4c(O)cccc4[C@@](C)(O)[C@H]3C[C@@H]12 unit_label=µg/mL obs_value=0.5
chemical_smiles=CN(C)c1ccc(O)c2c1C[C@H]1C[C@H]3[C@H](N(C)C)C(O)=C(C(N)=O)C(=O)[C@@]3(O)C(O)=C1C2=O unit_label=µg/mL obs_value=0.06

Quick request: MIC for each listed item, please.
1. Cc1onc(-c2ccccc2)c1C(=O)N[C@@H]1C(=O)N2[C@@H]1SC(C)(C)[C@@H]2C(=O)O
2. CO[C@@H]1[C@@H](OC(N)=O)[C@@H](O)[C@H](Oc2ccc3c(O)c(NC(=O)c4ccc(O)c(CC=C(C)C)c4)c(=O)oc3c2C)OC1(C)C

1: 0.25; 2: 0.15

---

# Test system: Vancomycin-intermediate Staphylococcus epidermidis Isolates
# ASSAY_OVERVIEW: MIC assay (NCCLS broth dilution), VISE isolates
# Assay type: cell-based
# STUDY_CONDITIONS: Staphylococcus epidermidis; 4 VISE isolates; combinations at 2.5:1
I'd appreciate it if you could supply MIC50 values for the items below.
Answers are plain numbers, in µg/mL.

# annotated cases, reported MIC50 shown
chemical_smiles=CC(=O)NC[C@H]1CN(c2ccc(N3CCOCC3)c(F)c2)C(=O)O1 metric_name=MIC50 unit_label=µg/mL obs_value=2
chemical_smiles=CN(C)c1ccc(O)c2c1C[C@H]1C[C@H]3[C@H](N(C)C)C(O)=C(C(N)=O)C(=O)[C@@]3(O)C(O)=C1C2=O metric_name=MIC50 unit_label=µg/mL obs_value=0.06
chemical_smiles=Cc1onc(-c2ccccc2)c1C(=O)N[C@@H]1C(=O)N2[C@@H]1SC(C)(C)[C@@H]2C(=O)O metric_name=MIC50 unit_label=µg/mL obs_value=2

Now for the molecule whose MIC50 we want.
Notebook entry, Vancomycin-intermediate Staphylococcus epidermidis Isolates assay: MIC50 of CN(C)[C@@H]1C(O)=C(C(N)=O)C(=O)[C@@]2(O)C(O)=C3C(=O)c4c(O)cccc4[C@@](C)(O)[C@H]3C[C@@H]12 = ? 0.5

---

I'd appreciate it if you could supply MIC values for the items below.
# Tested on: Methicillin-Susceptible Staphylococcus aureus Isolates
# ASSAY_OVERVIEW: MIC assay (NCCLS broth dilution), MSSA clinical isolates
# Type: cell-based
# STUDY_CONDITIONS: Staphylococcus aureus, MSSA isolate 1654, 03MAR06; read-out: Minimal Inhibitory Concentration

chemical_smiles=CN(C)c1ccc(O)c2c1C[C@H]1C[C@H]3[C@H](N(C)C)C(O)=C(C(N)=O)C(=O)[C@@]3(O)C(O)=C1C2=O obs_value="0.12 µg/mL"
chemical_smiles=CO[C@@H]1[C@@H](OC(N)=O)[C@@H](O)[C@H](Oc2ccc3c(O)c(NC(=O)c4ccc(O)c(CC=C(C)C)c4)c(=O)oc3c2C)OC1(C)C obs_value="0.31 µg/mL"

Batch lookup, MIC per entry.
1. Cc1onc(-c2ccccc2)c1C(=O)N[C@@H]1C(=O)N2[C@@H]1SC(C)(C)[C@@H]2C(=O)O
2. CC(=O)NC[C@H]1CN(c2ccc(N3CCOCC3)c(F)c2)C(=O)O1
3. CN(C)[C@@H]1C(O)=C(C(N)=O)C(=O)[C@@]2(O)C(O)=C3C(=O)c4c(O)cccc4[C@@](C)(O)[C@H]3C[C@@H]12

["0.12 µg/mL", "2 µg/mL", "0.5 µg/mL"]

---

# Tested on: Methicillin-Susceptible Staphylococcus aureus Isolates
# ASSAY_OVERVIEW: MIC assay (NCCLS broth dilution), MSSA clinical isolates
# Format: cell-based
# STUDY_CONDITIONS: Staphylococcus aureus, MSSA isolate 1656, 03MAR06; read-out: Minimal Inhibitory Concentration
In plain terms, low MIC, meaning strictly below 0.2 µg/mL, gives label 1, and everything else gives label 0.

// known answers, use as guide
chemical_smiles=CO[C@@H]1[C@@H](OC(N)=O)[C@@H](O)[C@H](Oc2ccc3c(O)c(NC(=O)c4ccc(O)c(CC=C(C)C)c4)c(=O)oc3c2C)OC1(C)C group="label 1"
chemical_smiles=CC(=O)NC[C@H]1CN(c2ccc(N3CCOCC3)c(F)c2)C(=O)O1 group="label 0"

In the record for CN(C)c1ccc(O)c2c1C[C@H]1C[C@H]3[C@H](N(C)C)C(O)=C(C(N)=O)C(=O)[C@@]3(O)C(O)=C1C2=O , is MIC less than 0.2 µg/mL? label 1

Same question for Cc1onc(-c2ccccc2)c1C(=O)N[C@@H]1C(=O)N2[C@@H]1SC(C)(C)[C@@H]2C(=O)O please. label 0

How about CN(C)[C@@H]1C(O)=C(C(N)=O)C(=O)[C@@]2(O)C(O)=C3C(=O)c4c(O)cccc4[C@@](C)(O)[C@H]3C[C@@H]12 ? label 0

---

# Tested on: Methicillin-Susceptible Staphylococcus aureus Isolates
# ASSAY_OVERVIEW: MIC assay (NCCLS broth dilution), MSSA clinical isolates
# Type: cell-based
# STUDY_CONDITIONS: Staphylococcus aureus, MSSA isolate 1000, 24FEB06; read-out: Minimal Inhibitory Concentration
METRIC_NAME: MIC (µg/mL)
Answers are plain numbers, in µg/mL.

Example cases with answers are listed next.
chemical_smiles=Cc1onc(-c2ccccc2)c1C(=O)N[C@@H]1C(=O)N2[C@@H]1SC(C)(C)[C@@H]2C(=O)O target_system="Methicillin-Susceptible Staphylococcus aureus Isolates" metric_name=MIC obs_value=0.25
chemical_smiles=CC(=O)NC[C@H]1CN(c2ccc(N3CCOCC3)c(F)c2)C(=O)O1 target_system="Methicillin-Susceptible Staphylococcus aureus Isolates" metric_name=MIC obs_value=2

Parameter requested: MIC. Apply to each item below.
1. CN(C)[C@@H]1C(O)=C(C(N)=O)C(=O)[C@@]2(O)C(O)=C3C(=O)c4c(O)cccc4[C@@](C)(O)[C@H]3C[C@@H]12
2. CO[C@@H]1[C@@H](OC(N)=O)[C@@H](O)[C@H](Oc2ccc3c(O)c(NC(=O)c4ccc(O)c(CC=C(C)C)c4)c(=O)oc3c2C)OC1(C)C
3. CN(C)c1ccc(O)c2c1C[C@H]1C[C@H]3[C@H](N(C)C)C(O)=C(C(N)=O)C(=O)[C@@]3(O)C(O)=C1C2=O

[0.5, 0.15, 0.12]

---

Field: MIC50. Provide a value for each of the compounds that follow.
# Test system: Methicillin-Susceptible Staphylococcus aureus Isolates
# ASSAY_OVERVIEW: MIC assay (NCCLS broth dilution), MSSA clinical isolates
# Assay type: cell-based
# STUDY_CONDITIONS: Staphylococcus aureus; 52 MSSA isolates; combinations at 2.5:1, given as NB/partner
Answers are plain numbers, in µg/mL.

chemical_smiles=CO[C@@H]1[C@@H](OC(N)=O)[C@@H](O)[C@H](Oc2ccc3c(O)c(NC(=O)c4ccc(O)c(CC=C(C)C)c4)c(=O)oc3c2C)OC1(C)C metric_name=MIC50 obs_value=0.15
chemical_smiles=CC(=O)NC[C@H]1CN(c2ccc(N3CCOCC3)c(F)c2)C(=O)O1 metric_name=MIC50 obs_value=2
chemical_smiles=CN(C)c1ccc(O)c2c1C[C@H]1C[C@H]3[C@H](N(C)C)C(O)=C(C(N)=O)C(=O)[C@@]3(O)C(O)=C1C2=O metric_name=MIC50 obs_value=0.12
chemical_smiles=Cc1onc(-c2ccccc2)c1C(=O)N[C@@H]1C(=O)N2[C@@H]1SC(C)(C)[C@@H]2C(=O)O metric_name=MIC50 obs_value=0.25

Fill in the blank: the reported MIC50 of CN(C)[C@@H]1C(O)=C(C(N)=O)C(=O)[C@@]2(O)C(O)=C3C(=O)c4c(O)cccc4[C@@](C)(O)[C@H]3C[C@@H]12 is ____. 0.5

---

# Tested on: Methicillin-Susceptible Staphylococcus aureus Isolates
# ASSAY_OVERVIEW: MIC assay (NCCLS broth dilution), MSSA clinical isolates
# Format: cell-based
# STUDY_CONDITIONS: Staphylococcus aureus, MSSA isolate 1003, 03MAR06; read-out: Minimal Inhibitory Concentration
Could you please report measured MIC for the items listed next?
Give bare numbers, in µg/mL.

In the examples that follow, each entry is paired with its recorded MIC.
molecule="Cc1onc(-c2ccccc2)c1C(=O)N[C@@H]1C(=O)N2[C@@H]1SC(C)(C)[C@@H]2C(=O)O [OX, oxacillin]" unit_label=µg/mL obs_value=0.25
molecule="CN(C)c1ccc(O)c2c1C[C@H]1C[C@H]3[C@H](N(C)C)C(O)=C(C(N)=O)C(=O)[C@@]3(O)C(O)=C1C2=O [MI, minocycline]" unit_label=µg/mL obs_value=0.06
molecule="CC(=O)NC[C@H]1CN(c2ccc(N3CCOCC3)c(F)c2)C(=O)O1 [LZD, linezolid]" unit_label=µg/mL obs_value=2
molecule="CN(C)[C@@H]1C(O)=C(C(N)=O)C(=O)[C@@]2(O)C(O)=C3C(=O)c4c(O)cccc4[C@@](C)(O)[C@H]3C[C@@H]12 [TE, tetracycline]" unit_label=µg/mL obs_value=0.5

// switching to the query molecule
# returns recorded MIC (system: Methicillin-Susceptible Staphylococcus aureus Isolates) for CO[C@@H]1[C@@H](OC(N)=O)[C@@H](O)[C@H](Oc2ccc3c(O)c(NC(=O)c4ccc(O)c(CC=C(C)C)c4)c(=O)oc3c2C)OC1(C)C [NB, novobiocin] 0.08
